tested-target: mitochondrial electron transport chain complex I (ETCC1), NADH ubiquinone oxidoreductase (Bos taurus, UniProt P03887+P17694+P42026)
measurement-kind: pIC50
Interpret pIC50 as the negative base-10 log of the concentration measured in mol/L.

Entry C=C(C)[C@@H]1C[C@@]2(C)C(=CC1=O)CC[C@@H](OC(=O)/C(C)=C\C)[C@@H]2C needs its pIC50 filled in; supply it.
5.45
